TARGET UNDER TEST: T1, full-length untagged human GPNMB expressed on cells (human, UniProt Q14956 23-572)
T1 sequence: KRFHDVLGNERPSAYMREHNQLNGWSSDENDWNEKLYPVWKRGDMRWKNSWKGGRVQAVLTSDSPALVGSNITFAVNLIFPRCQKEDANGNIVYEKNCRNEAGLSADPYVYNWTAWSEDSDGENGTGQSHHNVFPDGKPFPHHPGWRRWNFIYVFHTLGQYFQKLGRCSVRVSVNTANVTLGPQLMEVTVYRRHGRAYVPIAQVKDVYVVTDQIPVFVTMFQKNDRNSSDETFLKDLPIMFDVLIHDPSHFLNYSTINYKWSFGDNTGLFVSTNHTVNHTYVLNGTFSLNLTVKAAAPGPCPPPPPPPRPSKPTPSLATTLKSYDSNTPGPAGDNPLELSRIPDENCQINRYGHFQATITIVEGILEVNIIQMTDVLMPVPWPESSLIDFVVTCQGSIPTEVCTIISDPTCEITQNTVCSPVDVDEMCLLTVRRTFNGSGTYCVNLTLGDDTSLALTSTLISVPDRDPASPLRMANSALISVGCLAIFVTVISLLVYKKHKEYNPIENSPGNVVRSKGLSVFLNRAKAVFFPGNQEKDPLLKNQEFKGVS
ASSAY SUMMARY: cell-based or functional assay

{"columns": ["BINDER", "EC50 PDL1 (nM)"],
 "data": [
  ["anti-GPNMB antibody GPN-90 (antibody, V domains shown) VH: QVQLQESGPGLVKPSETLSLTCTVSGISITTGNYRWSWIRQPPGKGLEWIGYIDYSGTITYNPSLKQRVTITRDTSKNQFSLELSSVTAADTAVYYCARDLTHWYFDVWGQGTLVTVSS VL: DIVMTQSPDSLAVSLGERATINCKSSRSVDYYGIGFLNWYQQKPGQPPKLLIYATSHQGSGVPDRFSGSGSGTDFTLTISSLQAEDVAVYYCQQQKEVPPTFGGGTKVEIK", 0.68],
  ["anti-GPNMB antibody GPN-86 (antibody, V domains shown) VH: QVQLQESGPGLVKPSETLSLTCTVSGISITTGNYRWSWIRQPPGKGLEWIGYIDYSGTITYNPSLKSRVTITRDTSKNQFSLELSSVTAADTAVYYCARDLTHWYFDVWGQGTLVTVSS VL: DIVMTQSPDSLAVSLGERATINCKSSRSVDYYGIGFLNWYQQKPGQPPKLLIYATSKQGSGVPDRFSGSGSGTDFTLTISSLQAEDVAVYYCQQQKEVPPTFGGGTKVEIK", 1.37],
  ["anti-GPNMB antibody GPN-95 (antibody, V domains shown, also called PGN-95) VH: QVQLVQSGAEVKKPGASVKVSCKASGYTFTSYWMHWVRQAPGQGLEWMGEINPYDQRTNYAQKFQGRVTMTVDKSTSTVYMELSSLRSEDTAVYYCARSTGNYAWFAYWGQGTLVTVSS VL: DIVMTQSPDSLAVSLGERATINCKTSQDVSPSLAWYQQKPGQPPKLLIYSARYRYTGVPDRFSGSGSGTDFTLTISSLQAEDVAVYYCQQHYSIPLQFGGGTKVEIK", 0.7]
]}
